The values you see were collected from the NTF2 design screens of Basanta et al. (2020).

assay: protease stability score; higher = more stable; yeast display proteolysis, trypsin and chymotrypsin;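 note: relative to predicted unfolded state with 0 unfolded-like and 1 meaning tenfold more protease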
RECORDED ENDPOINT: protease stability score
// keep it numeric: no unit symbol after the value

SELEEEARKMNERFWRDMITGDFDSLVRLADPHVKVLYGDKFSIGREVFEEHLRHLGIKVSHLRNLDVQGDKVIVHGESKFNGKTFELEIIMRKFDGRWFIETVNLQ 0.973
SEEDEMIEELMRTIIRLFHTGDWEKKAKLMDPNTRSVIGDKHAHGREEIVRLFLEYWRELGIDHISIHDVKLQGDKVIVNGKLRVGEKTIDVRIHYVVVNGRLKSERFEEE 0.327

// protease stability score value for `SEDDNMAEHVLRYFIEHHLTGDFDSILKLMDPNMRLEVNGREHWGRKRWSEHLLRMGFDHVDIEEHRINSYGNFAYEIIHGRYHINGQEINITLIINVEKVNGKWIIREVTIVKR` : 1.74
